Values compiled from patent US6465457B1.

Below, each of the compounds is paired with its reported POCO (Percentage of Control) disease level, Pyricularia oryzae (Rice) value.
test system: Pyricularia oryzae (Rice); format: in vivo; details: 100 ppm a.i. foliar spray or root drench (approx. 40 ppm in dry soil), one or two days before inoculation

Examples from the recorded data:
COC=C(C(=O)OC)c1ccccc1COC(=O)Nc1ccccc1C#N [29 (1)]	0 (0 = 0% disease present)
COC=C(C(=O)OC)c1ccccc1COC(=O)N(C)c1ccccc1OC [16 (2)]	0 (0 = 0% disease present)
COC=C(C(=O)OC)c1ccccc1COC(=O)Nc1cccc(OC)c1 [7 (1)]	0 (0 = 0% disease present)
CCN(C(=O)OCc1ccccc1C(=COC)C(=O)OC)c1ccc(F)cc1F [24 (3)]	10 (10 = 5.1-10% disease present)

Reported POCO (Percentage of Control) disease level, Pyricularia oryzae (Rice) for CO/C=C(/C(=O)OC)c1ccccc1COC(=O)Nc1ccccc1 [5 (1)] was 10 (10 = 5.1-10% disease present)

Reported POCO (Percentage of Control) disease level, Pyricularia oryzae (Rice) for COC=C(C(=O)OC)c1ccccc1COC(=O)N(C)c1ccc(F)cc1F [24 (2)] was 0 (0 = 0% disease present)

Reported POCO (Percentage of Control) disease level, Pyricularia oryzae (Rice) for COC=C(C(=O)OC)c1ccccc1COC(=O)N(C)c1ccc(F)cc1 [13 (2)] was 0 (0 = 0% disease present)

Reported POCO (Percentage of Control) disease level, Pyricularia oryzae (Rice) for COC=C(C(=O)OC)c1ccccc1COC(=O)Nc1ccccc1Cl [12 (1)] was 5 (5 = 3.1-5% disease present)

Reported POCO (Percentage of Control) disease level, Pyricularia oryzae (Rice) for COC=C(C(=O)OC)c1ccccc1OC(=O)Nc1ccc(F)cc1F [24 (17)] was 0 (0 = 0% disease present)

Reported POCO (Percentage of Control) disease level, Pyricularia oryzae (Rice) for CO/C=C(/C(=O)OC)c1ccccc1COC(=O)Nc1cccc(C(F)(F)F)c1 [2 (1)] was 5 (5 = 3.1-5% disease present)

Reported POCO (Percentage of Control) disease level, Pyricularia oryzae (Rice) for CCN(C(=O)OCc1ccccc1C(=COC)C(=O)OC)c1ccc(F)cc1 [13 (3)] was 0 (0 = 0% disease present)

Reported POCO (Percentage of Control) disease level, Pyricularia oryzae (Rice) for COC=C(C(=O)OC)c1ccccc1COC(=O)N(C)c1cccc(SC)c1 [10 (2)] was 0 (0 = 0% disease present)

Reported POCO (Percentage of Control) disease level, Pyricularia oryzae (Rice) for COC=C(C(=O)OC)c1ccccc1COC(=O)N(C)c1ccccc1C(=O)OC [33 (2)] was 30 (30 = 20.1-30% disease present)

Reported POCO (Percentage of Control) disease level, Pyricularia oryzae (Rice) for COC=C(C(=O)OC)c1ccccc1COC(=O)N(C)c1ccc(F)c([N+](=O)[O-])c1 [105 (2)] was 5 (5 = 3.1-5% disease present)

Reported POCO (Percentage of Control) disease level, Pyricularia oryzae (Rice) for COC=C(C(=O)OC)c1ccccc1COC(=O)N(C)c1ccccc1C(F)(F)F [18 (2)] was 60 (60 = 30.1-60% disease present)
